Hello, the source for this data is PubChem BioAssay (NCI), in case you need it.

# Tested on: OVCAR-3 ovarian
# ASSAY REMARKS: NCI tumour cell line growth inhibition, 48 h
ASSAY READOUT: TGI

>>> df
                                    compound  assay_readout    result
 0              Cc1ccc(S(=O)(=O)NCCCSCCN)cc1            TGI  > 100 µM
 1  O=C(Oc1ccc(C(c2c(O)c3ccccc3oc2=O)c2c(O)c3ccccc3oc2=O)cc1)c1ccc(C(=O)c2ccccc2)cc1            TGI   36.5 µM
 2  O=C1CC(=O)NC(=NN2C(=O)CSC2c2ccc(Cl)cc2)N1 (stereo unspecified)            TGI  > 100 µM
 3  O=C(Nc1nc2ccc(OC(F)(F)F)cc2s1)c1ccc(F)cc1            TGI    7.2 µM
 4  C=C(Cl)[C@](Cl)(CBr)CC[C@@H](Br)C(C)(C)Cl            TGI   1.58 µM
 5  O=[N+]([O-])c1ccccc1S(=O)(=O)c1cccc2c1NCCC2            TGI  > 100 µM
 6  COc1ccc(/C=C/c2cc(O)cc(OC3OC(CO)C(O)C(O)C3O)c2)cc1O (stereo unspecified)            TGI  > 100 µM
 7  COc1ccc(/C=N/NS(=O)(=O)c2ccc(/C=C3\NC(=O)NC3=O)cc2)cc1            TGI  > 100 µM
 8  COc1ncnc2c(Cl)c(C(O)c3ccccc3)c(Cl)cc12 (stereo unspecified)            TGI  > 100 µM
 9  O=C1NC(=Nc2ccccc2Cl)N/C1=C\c1c(Cl)cccc1Cl            TGI  > 100 µM
10                       CSc1ccccc1NC1=NCCO1            TGI  > 100 µM
